# assayText: Solubility Test for Nimodipine in Oil Phase
# Assay type: physicochemical
# testSettings: soybean oil, oil or lipid, normal temperature; read-out: Solubility, Soybean Oil
testReadout: solubility (mg/mL)
API: value field is a number in mg/mL; no unit string.

[Q] Give solubility for COCCOC(=O)C1=C(C)NC(C)=C(C(=O)OC(C)C)C1c1cccc([N+](=O)[O-])c1 (stereo not drawn) [β-type, nimodipine]
[A] 6.7

====

# assayText: Solubility Test for Nimodipine in Oil Phase
# Assay type: physicochemical
# testSettings: medium-chain oil, oil or lipid, normal temperature; read-out: Solubility, Medium-chain Oil
testReadout: solubility (mg/mL)
API: value field is a number in mg/mL; no unit string.

[Q] Give solubility for COCCOC(=O)C1=C(C)NC(C)=C(C(=O)OC(C)C)C1c1cccc([N+](=O)[O-])c1 (stereo not shown)
[A] 11.8
